Hello, the source for this data is PubChem BioAssay, in case you need it.

Kindly supply the reported inhibition values for the records listed here.
target: Pantothenate synthetase (Mycobacterium tuberculosis (strain ATCC 25618 / H37Rv)) (UniProt P9WIL5); experiment: Coupled enzyme confirmation of inhibitors against recombinant Mtb PanC (AID 375); conditions: coupled enzyme assay; at 10 µM, hits give high values;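 further: 0% = full reaction with vehicle and 100% = no enzyme background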
Sequence (P9WIL5 whole entry, looked up): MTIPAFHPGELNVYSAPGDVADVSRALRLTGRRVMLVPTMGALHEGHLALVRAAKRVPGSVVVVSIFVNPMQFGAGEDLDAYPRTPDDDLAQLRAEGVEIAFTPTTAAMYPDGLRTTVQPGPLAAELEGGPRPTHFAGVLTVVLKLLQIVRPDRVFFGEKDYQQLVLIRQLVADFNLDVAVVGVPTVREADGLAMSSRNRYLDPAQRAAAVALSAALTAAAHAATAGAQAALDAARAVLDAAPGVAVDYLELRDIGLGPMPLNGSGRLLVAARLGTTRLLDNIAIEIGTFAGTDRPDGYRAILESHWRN
Provide the reading as a plain figure in %.

Q. Which inhibition is listed for OCc1nc2ccccc2n1CC(O)Cn1ccc2ccccc21 (stereo unspecified) ?
A. 1

Q. So what's the measured inhibition for this one? O=C(O)c1c[nH]c2ccc(S(=O)(=O)N3CCN(c4ccc(F)cc4)CC3)cc2c1=O
A. 0

Q. Consider the compound CC(=O)c1ccc(NC(=O)c2noc3c2CCCCC3)cc1 and give its measured inhibition.
A. 1

Q. Which value of inhibition has been reported for COc1ccc(OC)c(NC(=O)C2CCN(c3cc(-c4ccccc4)nc4ncnn34)CC2)c1 in the records?
A. 2

Q. Find the recorded inhibition belonging to O=C(O)CCCc1nc(-c2ccccc2)no1 and report it.
A. 0

Q. Record request: inhibition value, item O=S(=O)(c1ccc2c(c1)nc1n2CCC1)N1CCOCC1
A. 0

Q. Report inhibition for Cc1ccc(S(=O)(=O)N2CCN(C(=O)CN3C(=O)NC4(CCOc5ccccc54)C3=O)CC2)cc1 (stereo unspecified) please.
A. 2

Q. Fill in: inhibition of COc1cc(NS(=O)(=O)c2ccc(N)cc2)ncn1 is ___
A. 0

Q. So what's the measured inhibition for this one? COc1ccccc1N1CCN(Cc2nc(N)nc(Nc3ccc(C)c(Cl)c3)n2)CC1
A. 3

Q. Form field: reported inhibition of Cn1c(=O)[nH]c(=O)c2c1nc(N1CCOCC1)n2CC(O)COc1ccc2ccccc2c1 (stereo unspecified)
A. 0

Q. Suppose we examine the compound CC1(C)CC(=O)C(C=NCCO)=C(O)C1 ; what inhibition value has been reported?
A. 0
